assay: Oral acute toxicity in mice (Toxicological Test); conditions: mouse, in vivo, five-week aged ddY-SLC strained male mice
ASSAY_ENDPOINT: LD50

Example entries begin here.
{"MOLECULE": "CCCSP(=S)(OCC)Oc1cnn(-c2ccc(Cl)c(Cl)c2)c1 (centres unmarked)", "LD50": "> 300 mg/kg"}
{"MOLECULE": "CCCSP(=O)(OCC)Oc1cnn(-c2ccc(SC)cc2)c1 (centres unmarked)", "LD50": "> 300 mg/kg"}
{"MOLECULE": "CCCSP(=S)(OCC)Oc1cn(-c2ccccc2)nc1C(=O)OCC (centres unmarked)", "LD50": "> 300 mg/kg"}
{"MOLECULE": "CCCSP(=O)(OCC)Oc1cnn(-c2ccc(Cl)cc2Cl)c1 (centres unmarked)", "LD50": "~300 mg/kg"}
{"MOLECULE": "CCCSP(=O)(OCC)Oc1cnn(-c2ccc3c(c2)OCO3)c1 (centres unmarked)", "LD50": "50 to 300 mg/kg"}

I am curious: what LD50 value has been reported for CCCSP(=S)(OCC)Oc1cnn(-c2ccccc2)c1 (centres unmarked) ?
> 300 mg/kg

Now consider CCCSP(=O)(OCC)Oc1cnn(-c2cc(Cl)cc(Cl)c2)c1 (centres unmarked) .
> 300 mg/kg

// query: CCCSP(=O)(OCC)Oc1cnn(-c2ccccc2)c1 (centres unmarked)
> 300 mg/kg

Input CCOP(=S)(OCC)Oc1cnn(-c2ccc(Cl)cc2)c1
> 300 mg/kg

Then CCCSP(=S)(OCC)Oc1cnn(-c2ccc(Br)cc2)c1 (centres unmarked) ?
> 300 mg/kg

----------
test: Oral acute toxicity in mice (Toxicological Test); details: mouse, in vivo, five-week aged ddY-SLC strained male mice
Below is a list of entries, each paired with its recorded LD50 value.

{"COMPOUND": "CCCSP(=O)(OCC)Oc1cnn(-c2ccc(C)cc2C)c1 (centres unmarked)", "LD50": "~300 mg/kg"}
{"COMPOUND": "CCOP(=S)(OCC)Oc1cnn(-c2ccc(C)cc2C)c1", "LD50": "> 300 mg/kg"}
{"COMPOUND": "CCCOP(=S)(OCC)Oc1cn(-c2ccccc2)nc1C(=O)OCC (centres unmarked)", "LD50": "> 300 mg/kg"}

Which LD50 is listed for CCCSP(=S)(OCC)Oc1cnn(-c2cccc(Cl)c2)c1 (centres unmarked) ?
> 300 mg/kg

Request: CCCSP(=O)(OCC)Oc1cnn(-c2c(C)cccc2C)c1 (centres unmarked)
> 300 mg/kg

----------
tested on: Unaspis yanonensis; experiment: Effectiveness against Unaspis yanonensis (Testing Example 3); type: in vivo; conditions: 480 h, second-instar larvae, 500 ppm wettable powder suspension sprayed, 20th day after spraying
ASSAY_ENDPOINT: mortality at 500 µg/mL (%)
The reply should contain only the number, in %.

Would you please look over these solved cases?
{"MOLECULE": "CCOP(=S)(OCC)Oc1cnn(-c2ccccc2)c1 [compound 2]", "TARGET": "Unaspis yanonensis", "mortality at 500 µg/mL, %": 75}
{"MOLECULE": "CCOP(=S)(OCC)Oc1cnn(-c2ccc(C)cc2C)c1 [compound 34]", "TARGET": "Unaspis yanonensis", "mortality at 500 µg/mL, %": 79}
{"MOLECULE": "CCCSP(=O)(OCC)Oc1cnn(-c2cc(Cl)cc(Cl)c2)c1 (centres unmarked) [compound 33]", "TARGET": "Unaspis yanonensis", "mortality at 500 µg/mL, %": 70}
{"MOLECULE": "COP(=S)(OC)Oc1cnn(-c2ccccc2)c1 [Compound No. 1]", "TARGET": "Unaspis yanonensis", "mortality at 500 µg/mL, %": 86}

Lab request: please report mortality at 500 µg/mL under test system Unaspis yanonensis for CCCSP(=O)(OCC)Oc1cnn(-c2ccccc2)c1 (centres unmarked) [Compound No. 4]
84

Let us now turn to CCCOP(=S)(OCC)Oc1cnn(-c2ccccc2)c1 (centres unmarked) [Compound No. 3]
79

Ok, now CCCSP(=O)(OCC)Oc1cnn(-c2ccccc2Cl)c1 (centres unmarked) [compound 12]
71

How about this molecule: CCCSP(=O)(OCC)Oc1cnn(-c2ccc(Cl)cc2Cl)c1 (centres unmarked) [compound 29]
97

How about CCCSP(=O)(OCC)Oc1cnn(-c2ccc(Cl)c(Cl)c2)c1 (centres unmarked) [Compound No. 31] ?
75

Record: CCCSP(=O)(OCC)Oc1cnn(-c2ccc(C)cc2C)c1 (centres unmarked) [compound 35]
82

Now give it for CCCSP(=S)(OCC)Oc1cnn(-c2ccc(OC)cc2)c1 (centres unmarked) [compound 25] too.
100

----------
Parameter Mortality (II): see the listing below.
system: Laodelphax striatellus; test: Effectiveness against Laodelphax striatellus, adults, dust on paddy-rice plant (Testing Example 1 (b)); assay type: in vivo; conditions: small brown planthopper, adults on dusted rice, 24 h
Express it in %; write the number only.

{"MOLECULE": "CCCSP(=O)(OCC)Oc1cnn(-c2cccc(Cl)c2)c1 (stereo not drawn)", "TARGET": "Laodelphax striatellus", "UNIT": "%", "Mortality (II)": 90}
{"MOLECULE": "CCCSP(=O)(OCC)Oc1cnn(-c2ccc(Cl)cc2Cl)c1 (stereo not drawn)", "TARGET": "Laodelphax striatellus", "UNIT": "%", "Mortality (II)": 30}
{"MOLECULE": "CCCSP(=S)(OCC)Oc1cnn(-c2ccc(Cl)cc2)c1 (stereo not drawn)", "TARGET": "Laodelphax striatellus", "UNIT": "%", "Mortality (II)": 35}
{"MOLECULE": "CCCSP(=O)(OCC)Oc1cnn(-c2ccccc2C)c1 (stereo not drawn)", "TARGET": "Laodelphax striatellus", "UNIT": "%", "Mortality (II)": 63}
{"MOLECULE": "CCCSP(=O)(OCC)Oc1cnn(-c2ccc(Cl)cc2F)c1 (stereo not drawn)", "TARGET": "Laodelphax striatellus", "UNIT": "%", "Mortality (II)": 90}

Read the next record carefully.
So what's the measured Mortality (II) for this one? CCCOP(=S)(OCC)Oc1cn(-c2ccccc2)nc1C(=O)OCC (stereo not drawn)
70

----------
Test system: Laodelphax striatellus
Assay: Effectiveness against Laodelphax striatellus, adults, dust on paddy-rice plant (Testing Example 1 (b))
Format: in vivo
Settings: small brown planthopper, adults on dusted rice, 24 h
Method: Testing Example 1: Effectiveness against Laodelphax striatellus (b) A test compound was processed into a dust preparation in accordance with the formulation of Example 8, and […] of the preparation was dusted on the potted paddy-rice plant (1/5,000 a) by the Berger Duster method. […] After allowing the test tube to stand in the room (28° C.) for 24 hours, the dead insects were counted.
hey, just use Satisfied if measured Mortality (II) is less than 60%, otherwise Not satisfied

For orientation, consider the following solved cases.
{"COMPOUND": "CCCSP(=O)(OCC)Oc1cnn(-c2cc(Cl)c(Cl)cc2Cl)c1 (stereo not drawn)", "CATEGORY": "Satisfied"}
{"COMPOUND": "CCCSP(=O)(OCC)Oc1cnn(-c2ccc(Cl)cc2)c1 (stereo not drawn)", "CATEGORY": "Not satisfied"}

Check if Mortality (II) falls below 60% for CCCSP(=O)(OCC)Oc1cnn(-c2ccc(Br)cc2)c1 (stereo not drawn) .
Not satisfied

Next compound: CCCSP(=S)(OCC)Oc1cnn(-c2cc(Cl)c(Cl)cc2Cl)c1 (stereo not drawn)
Satisfied

Again, but for CCCSP(=O)(OCC)Oc1cnn(-c2ccc(I)cc2)c1 (stereo not drawn)
Not satisfied

Try CCCSP(=O)(OCC)Oc1cnn(-c2ccc(F)cc2)c1 (stereo not drawn) next.
Not satisfied

Same lookup for CCCSP(=O)(OCC)Oc1cnn(-c2cc(Cl)cc(Cl)c2)c1 (stereo not drawn) , please.
Not satisfied

Cool, now CCCSP(=O)(OCC)Oc1cnn(-c2ccc(Cl)c(Cl)c2)c1 (stereo not drawn)
Not satisfied

What do you get for CCCSP(=O)(OCC)Oc1cnn(-c2ccc(CCC)cc2)c1 (stereo not drawn) ?
Satisfied
